Hey, just so you know, these numbers are from ChEMBL document CHEMBL1141234.

- METHOD: Ratio of drug level in brain against plasma in rat
- Assay type: ADME, organism-based
- MEASUREMENT_CONTEXT: read-out: BBR
QUANTITY: Kp

MOL_SMILES	QUANTITY	ENDPOINT_RESULT
CN1CCc2c(sc3ncn(CCN4CCN(c5cncc6ccccc56)CC4)c(=O)c23)C1	Kp	10.2

###

So I've got Ki readings for 5-hydroxytryptamine receptor 1A (Rattus norvegicus, UniProt P19327), take a look.

MOL_SMILES	EXPERIMENTAL_TARGET	Ki [nM]
CN1CCc2c(sc3ncn(CCN4CCN(c5ccnc6ccccc56)CC4)c(=O)c23)C1	5-hydroxytryptamine receptor 1A (Rattus norvegicus, UniProt P19327)	23
CN1CCc2c(sc3ncn(CCN4CCN(c5cncc6ccccc56)CC4)c(=O)c23)C1	5-hydroxytryptamine receptor 1A (Rattus norvegicus, UniProt P19327)	16.3

###

- EXPERIMENTAL_TARGET: 5-hydroxytryptamine receptor 1B (Homo sapiens)
- METHOD: Functional activity in FLIPR assay for 5HT1B receptor
- MEASUREMENT_CONTEXT: filed as antagonist

MOL_SMILES	Activity
CN1CCc2c(sc3ncn(CCN4CCN(c5ccnc6ccccc56)CC4)c(=O)c23)C1	Antagonist
CN1CCc2c(sc3ncn(CCN4CCN(c5ccccc5-c5ccccc5)CC4)c(=O)c23)C1	Antagonist
CN1CCc2c(sc3ncn(CCN4CCN(c5cncc6ccccc56)CC4)c(=O)c23)C1	Antagonist

###

- EXPERIMENTAL_TARGET: 5-hydroxytryptamine receptor 1B (Homo sapiens, UniProt P28222)
- Sequence (P28222 whole entry): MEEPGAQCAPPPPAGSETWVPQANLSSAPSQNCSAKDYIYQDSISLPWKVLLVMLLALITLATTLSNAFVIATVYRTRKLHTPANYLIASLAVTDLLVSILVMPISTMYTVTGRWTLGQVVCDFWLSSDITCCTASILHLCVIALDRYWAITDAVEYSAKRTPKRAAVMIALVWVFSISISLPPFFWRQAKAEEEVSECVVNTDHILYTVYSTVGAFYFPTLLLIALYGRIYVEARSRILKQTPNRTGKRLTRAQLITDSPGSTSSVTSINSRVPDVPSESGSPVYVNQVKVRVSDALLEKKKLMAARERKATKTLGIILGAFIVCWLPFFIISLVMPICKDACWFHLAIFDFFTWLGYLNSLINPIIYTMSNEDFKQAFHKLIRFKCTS
- METHOD: Inhibitory activity against human recombinant 5HT1B receptor co-expressed with G-protein chimera Gqo5 in HEK293 cells by FLIPR
pKi: −log10 of the molar value.
Quick rule: pKi of at least 8 means y, below that means n.

MOL_SMILES	ASSIGNED_CATEGORY
CC(C)Oc1ccccc1N1CCN(CCn2cnc3sc4c(c3c2=O)CCN(C)C4)CC1	y
COc1ccc(Cl)cc1N1CCN(CCn2cnc3sc4c(c3c2=O)CCN(C)C4)CC1	n
COc1ccc(OC)c(N2CCN(CCn3cnc4sc5c(c4c3=O)CCN(C)C5)CC2)c1	n
CN1CCc2c(sc3ncn(CCN4CCN(c5ccccc5C#N)CC4)c(=O)c23)C1	y
COc1ccc(C(F)(F)F)cc1N1CCN(CCn2cnc3sc4c(c3c2=O)CCN(C)C4)CC1	n
CN1CCc2c(sc3ncn(CCN4CCN(c5cccc6ccncc56)CC4)c(=O)c23)C1	y
CN1CCc2c(sc3ncn(CCN4CCN(c5cccc6cccnc56)CC4)c(=O)c23)C1	y
Cc1ccccc1N1CCN(CCn2cnc3sc4c(c3c2=O)CCN(C)C4)CC1	y
CN1CCc2c(sc3ncn(CCN4CCN(c5cncc6ccccc56)CC4)c(=O)c23)C1	y
CN1CCc2c(sc3ncn(CCN4CCN(c5ccccc5-c5ccccc5)CC4)c(=O)c23)C1	y
CN1CCc2c(sc3ncn(CCN4CCN(c5cccc6ccccc56)CC4)c(=O)c23)C1	y
COc1cc(Cl)c(Cl)cc1N1CCN(CCn2cnc3sc4c(c3c2=O)CCN(C)C4)CC1	y
CN1CCc2c(sc3ncn(CCN4CCN(c5ccccc5Cl)CC4)c(=O)c23)C1	y
COc1c(Cl)cc(Cl)cc1N1CCN(CCn2cnc3sc4c(c3c2=O)CCN(C)C4)CC1	y
COc1ccc2ccccc2c1N1CCN(CCn2cnc3sc4c(c3c2=O)CCN(C)C4)CC1	y
CN1CCc2c(sc3ncn(CCN4CCN(c5cccc6ncccc56)CC4)c(=O)c23)C1	y
CN1CCc2c(sc3ncn(CCN4CCN(c5ccccc5OCC(C)(C)C)CC4)c(=O)c23)C1	y
CN1CCc2c(sc3ncn(CCN4CCN(c5cccc6ccsc56)CC4)c(=O)c23)C1	y
CN1CCc2c(sc3ncn(CCN4CCN(c5ncnc6ccccc56)CC4)c(=O)c23)C1	n
CN1CCc2c(sc3ncn(CCN4CCN(c5ccccc5OCc5ccccc5)CC4)c(=O)c23)C1	y
COc1ccccc1N1CCN(CCn2cnc3sc4c(c3c2=O)CCN(C)C4)CC1	y
COc1cc(Cl)ccc1N1CCN(CCn2cnc3sc4c(c3c2=O)CCN(C)C4)CC1	y
CN1CCc2c(sc3ncn(CCN4CCN(c5ccccc5Oc5ccccc5)CC4)c(=O)c23)C1	y
CN1CCc2c(sc3ncn(CCN4CCN(c5cccc6cnccc56)CC4)c(=O)c23)C1	y
CN1CCc2c(sc3ncn(CCN4CCN(c5cccc6c5OCC6)CC4)c(=O)c23)C1	y
CN1CCc2c(sc3ncn(CCN4CCN(c5nccc6ccccc56)CC4)c(=O)c23)C1	y
CN1CCc2c(sc3ncn(CCN4CCN(c5ccc6ccccc6n5)CC4)c(=O)c23)C1	n
COc1c(Cl)cccc1N1CCN(CCn2cnc3sc4c(c3c2=O)CCN(C)C4)CC1	y
COc1ccc(-c2ccccc2)cc1N1CCN(CCn2cnc3sc4c(c3c2=O)CCN(C)C4)CC1	n

###

Item-by-item account of IC50
- EXPERIMENTAL_TARGET: 5-hydroxytryptamine receptor 1B (Homo sapiens)
- METHOD: Inhibitory activity against human recombinant 5HT1B receptor co-expressed with G-protein chimera Gqo5 in HEK293 cells by FLIPR
- Assay type: functional, cell-based
QUANTITY: IC50 (nM)

MOL_SMILES	ENDPOINT_RESULT
CN1CCc2c(sc3ncn(CCN4CCN(c5ccnc6ccccc56)CC4)c(=O)c23)C1	85
CN1CCc2c(sc3ncn(CCN4CCN(c5cncc6ccccc56)CC4)c(=O)c23)C1	35

###

- EXPERIMENTAL_TARGET: 5-hydroxytryptamine receptor 1A (Homo sapiens) (UniProt P08908)
- Sequence (P08908 whole entry): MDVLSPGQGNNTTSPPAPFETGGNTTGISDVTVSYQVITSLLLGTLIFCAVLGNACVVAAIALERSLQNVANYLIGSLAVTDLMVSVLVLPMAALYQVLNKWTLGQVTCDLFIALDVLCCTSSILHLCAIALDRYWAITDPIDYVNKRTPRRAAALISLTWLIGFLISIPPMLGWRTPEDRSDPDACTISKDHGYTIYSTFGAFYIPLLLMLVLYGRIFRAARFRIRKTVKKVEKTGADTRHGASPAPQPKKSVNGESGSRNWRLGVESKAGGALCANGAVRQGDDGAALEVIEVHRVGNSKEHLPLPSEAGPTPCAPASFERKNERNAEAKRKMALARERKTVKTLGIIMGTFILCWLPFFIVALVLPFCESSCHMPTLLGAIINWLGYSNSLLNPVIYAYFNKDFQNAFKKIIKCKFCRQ
- METHOD: Intrinsic activity for 5HT1A receptor in [35S]GTP-gamma-S assay
- Format: functional
Item-by-item account of Emax
QUANTITY: Emax

MOL_SMILES	ENDPOINT_RESULT
CN1CCc2c(sc3ncn(CCN4CCN(c5cccc6cnccc56)CC4)c(=O)c23)C1	10%
CN1CCc2c(sc3ncn(CCN4CCN(c5cncc6ccccc56)CC4)c(=O)c23)C1	4%
CN1CCc2c(sc3ncn(CCN4CCN(c5cccc6ccsc56)CC4)c(=O)c23)C1	10%
CN1CCc2c(sc3ncn(CCN4CCN(c5ncnc6ccccc56)CC4)c(=O)c23)C1	< 10%
CN1CCc2c(sc3ncn(CCN4CCN(c5ccccc5C#N)CC4)c(=O)c23)C1	10%
CN1CCc2c(sc3ncn(CCN4CCN(c5ccccc5OCc5ccccc5)CC4)c(=O)c23)C1	10%
CN1CCc2c(sc3ncn(CCN4CCN(c5ccccc5-c5ccccc5)CC4)c(=O)c23)C1	10%
CN1CCc2c(sc3ncn(CCN4CCN(c5ccccc5Cl)CC4)c(=O)c23)C1	10%
COc1ccc(OC)c(N2CCN(CCn3cnc4sc5c(c4c3=O)CCN(C)C5)CC2)c1	< 10%
CC(C)Oc1ccccc1N1CCN(CCn2cnc3sc4c(c3c2=O)CCN(C)C4)CC1	10%
Cc1ccccc1N1CCN(CCn2cnc3sc4c(c3c2=O)CCN(C)C4)CC1	< 10%
CN1CCc2c(sc3ncn(CCN4CCN(c5cccc6ccncc56)CC4)c(=O)c23)C1	10%
CN1CCc2c(sc3ncn(CCN4CCN(c5ccc6ccccc6n5)CC4)c(=O)c23)C1	10%
CN1CCc2c(sc3ncn(CCN4CCN(c5cccc6ccccc56)CC4)c(=O)c23)C1	10%
COc1ccc(Cl)cc1N1CCN(CCn2cnc3sc4c(c3c2=O)CCN(C)C4)CC1	< 10%
COc1ccc(C)cc1N1CCN(CCn2cnc3sc4c(c3c2=O)CCN(C)C4)CC1	10%
COc1c(Cl)cccc1N1CCN(CCn2cnc3sc4c(c3c2=O)CCN(C)C4)CC1	10%
CN1CCc2c(sc3ncn(CCN4CCN(c5cccc6cccnc56)CC4)c(=O)c23)C1	10%
CN1CCc2c(sc3ncn(CCN4CCN(c5ccccc5Oc5ccccc5)CC4)c(=O)c23)C1	10%
CN1CCc2c(sc3ncn(CCN4CCN(c5ccnc6ccccc56)CC4)c(=O)c23)C1	6%

###

- EXPERIMENTAL_TARGET: 5-hydroxytryptamine receptor 1A (Homo sapiens)
- METHOD: Functional activity in [35S]GTP-gamma-S assay for 5HT1A receptor
- MEASUREMENT_CONTEXT: filed as partial agonist

MOL_SMILES	Activity
COc1cc(Cl)ccc1N1CCN(CCn2cnc3sc4c(c3c2=O)CCN(C)C4)CC1	Partial agonist
CN1CCc2c(sc3ncn(CCN4CCN(c5cccc6cccnc56)CC4)c(=O)c23)C1	Partial agonist
CN1CCc2c(sc3ncn(CCN4CCN(c5ccccc5OCC(C)(C)C)CC4)c(=O)c23)C1	Partial agonist
CN1CCc2c(sc3ncn(CCN4CCN(c5cccc6c5OCC6)CC4)c(=O)c23)C1	Partial agonist
CN1CCc2c(sc3ncn(CCN4CCN(c5cccc6ccccc56)CC4)c(=O)c23)C1	Partial agonist
CN1CCc2c(sc3ncn(CCN4CCN(c5ccccc5C#N)CC4)c(=O)c23)C1	Partial agonist
CN1CCc2c(sc3ncn(CCN4CCN(c5ccc6ccccc6n5)CC4)c(=O)c23)C1	Partial agonist
CN1CCc2c(sc3ncn(CCN4CCN(c5ccccc5OCc5ccccc5)CC4)c(=O)c23)C1	Partial agonist
CC(C)Oc1ccccc1N1CCN(CCn2cnc3sc4c(c3c2=O)CCN(C)C4)CC1	Partial agonist
COc1ccc2ccccc2c1N1CCN(CCn2cnc3sc4c(c3c2=O)CCN(C)C4)CC1	Partial agonist
CN1CCc2c(sc3ncn(CCN4CCN(c5nccc6ccccc56)CC4)c(=O)c23)C1	Partial agonist
CN1CCc2c(sc3ncn(CCN4CCN(c5ccccc5Cl)CC4)c(=O)c23)C1	Partial agonist
CN1CCc2c(sc3ncn(CCN4CCN(c5cccc6ccncc56)CC4)c(=O)c23)C1	Partial agonist
CN1CCc2c(sc3ncn(CCN4CCN(c5ccccc5-c5ccccc5)CC4)c(=O)c23)C1	Partial agonist
COc1ccc(C)cc1N1CCN(CCn2cnc3sc4c(c3c2=O)CCN(C)C4)CC1	Partial agonist
COc1cc(Cl)c(Cl)cc1N1CCN(CCn2cnc3sc4c(c3c2=O)CCN(C)C4)CC1	Partial agonist
CN1CCc2c(sc3ncn(CCN4CCN(c5cccc6ccsc56)CC4)c(=O)c23)C1	Partial agonist
COc1c(Cl)cccc1N1CCN(CCn2cnc3sc4c(c3c2=O)CCN(C)C4)CC1	Partial agonist
CN1CCc2c(sc3ncn(CCN4CCN(c5ccccc5Oc5ccccc5)CC4)c(=O)c23)C1	Partial agonist
CN1CCc2c(sc3ncn(CCN4CCN(c5cccc6cnccc56)CC4)c(=O)c23)C1	Partial agonist
